Where do these numbers come from? They come from patent US12662451B2.

system: SW48 human colorectal cancer cells (MSI-H cancer cells); assay: SW48 cell viability, CellTiter-Glo, 120 hours (Example B); conditions: Homo sapiens, SW48, 120 h, read-out: SW48 pCC50, SW48 cell viability, 120 hours incubation (converted); Table 2
Below is a list of entries, each paired with its recorded log10 CC50 value.
# values: log10(CC50), units nM

// known answers, use as guide
Cc1nc2cc(S(=O)(=O)N(C)c3ccc([C@H]4CCC[C@@H](C(=O)N[C@H]5CC[C@H](C(C)(C)F)CC5)[C@@H]4C(=O)O)cc3)ccc2n1C: 3.20
Cc1nc2cc(S(=O)(=O)N(C)c3ccc([C@@H]4C[C@H](N5CCC[C@@H](F)C5)C[C@H](C(=O)Nc5ccc(C(F)(F)F)cc5F)[C@H]4C(=O)O)cc3)ccc2n1C (stereo in doubt): 4.10
CCc1ccc(NC(=O)[C@@H]2CCC[C@H](c3ccc(N(C)S(=O)(=O)c4ccc5c(c4)nc(C)n5C)cc3)[C@H]2C(=O)O)cc1: 3.20
CN1CCOc2ccc(S(=O)(=O)N(C)c3ccc([C@H]4CCC[C@@H](C(=O)Nc5ccc(C(F)(F)F)cc5F)[C@@H]4C(=O)O)cc3)cc21: 3.00
Cc1nc2cc(S(=O)(=O)N(C)c3ccc([C@H]4CCC[C@@H](COc5ccc(C(F)(F)F)cc5O)[C@@H]4C(=O)O)cc3)ccc2n1C: 3.60
O=C(O)[C@@H]1[C@@H](c2ccc(-c3cccc4cnccc34)cc2)CCC[C@H]1C(=O)Nc1ccc(C(F)(F)F)cc1F: 4.10
Cc1nc2cc(S(=O)(=O)N(C)c3ccc([C@H]4CCC[C@@H](C(=O)Nc5ccc(C(C)C)cc5)[C@H]4C(=O)O)cc3)ccc2n1C (racemic) [Example 75]: 3.70
Cc1nc2cc(S(=O)(=O)N(C)c3ccc([C@H]4C[C@H](N)C[C@@H](C(=O)Nc5ccc(C(F)(F)F)cc5F)[C@@H]4C(=O)O)cc3)ccc2n1C (stereo in doubt): 4.10

INPUT: Name the recorded log10 CC50 of the compound listed here: `CN(c1ccc([C@H]2CCC[C@@H](C(=O)Nc3ccc(C(F)(F)F)cc3F)[C@@H]2C(=O)O)cc1)S(=O)(=O)c1ccc2c(c1)OCC2`
OUTPUT: 2.90
